Target: Gag-Pol polyprotein (Human immunodeficiency virus type 1 group M subtype B (isolate HXB2)) (UniProt P04585)
Experiment: RNase H inhibition, HIV 1 Gag Pol polyprotein, FRET biochemical assay, screening (AID 372)
Settings: HIV-1 RT RNase H, FRET RNA/DNA substrate fluorescence; at 10 µM; active compounds read high
In all, about 100,000 compounds went through this assay and about 770 (0.77%) were called active. Only a selection was taken, and actives are over-represented in it overall.
Each entry below carries its recorded inhibition.
State the answer as a number, implicitly in %.

| COMPOUND | READOUT UNITS | inhibition |
| --- | --- | --- |
| O=C(Nc1ccc(Cl)c(-c2nc3ncccc3o2)c1)c1ccc(Cl)cc1Cl | % | 6 |
| COc1ccc(C(=O)Nc2ccc(NC(=O)c3cc4ccccc4o3)c(OC)c2)cc1Br | % | 6 |
| c1ccc(CNc2nc(-c3ccccc3)cc(-c3ccccc3)n2)cc1 | % | 15 |
| CCOC(=O)N1CCN(CCC(=O)Nc2ccc3c(c2)OCO3)CC1 | % | 16 |
| CC(Nc1cc(N2CCN(C)CC2)ccc1[N+](=O)[O-])c1ccc(Br)cc1 (configuration not stated) | % | 9 |

We now examine a further compound.
Problem: Look up inhibition of COc1cc(NC(=O)c2ccc(C(C)(C)C)cc2)ccc1NC(=O)c1cc2ccccc2o1 and report it.
Result: 7
